assayed-system: T1, TNFR1 (Homo sapiens, UniProt P19438)
T1 chain: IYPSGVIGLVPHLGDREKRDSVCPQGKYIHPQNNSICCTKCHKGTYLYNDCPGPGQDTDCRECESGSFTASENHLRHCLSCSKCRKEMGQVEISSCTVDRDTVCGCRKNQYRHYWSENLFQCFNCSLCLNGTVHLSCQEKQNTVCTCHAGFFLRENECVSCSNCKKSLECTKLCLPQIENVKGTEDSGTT
experiment-summary: yeast display SC50
measurement-kind: apparent Kd (screen)

1) L3A (designed binder) MTAQELLREEALRRAEAEAFRYALELLAEKFPEQKEYLLDLAEEIESQIRSLSGVDVEDVRKFLDKEWAWVKELLAEHPAELAEVEAARAARLAELRAEVEAKVAA; 2.73 nM
2) A83N (designed binder) MTLQELLREEALRRAEAEAFRYALELLAEKFPEQKEYLLDLAEEIESQIRSLSGVDVEDVRKFLDKEWAWVKELLAEHPAELNEVEAARAARLAELRAEVEAKVAA; 0.653 nM
